These data points were gathered from ChEMBL document CHEMBL3885881.

# Species on record: Rattus norvegicus
# TEST: DrugMatrix - Regimen: Daily Repeat
# Assay type: toxicity, organism-based, Sprague-Dawley
# Parameters: regimen Daily Repeat, gender Male, age 6-8 weeks
# EXPERIMENTAL_CONTEXT: in vivo, po, 1500 mg/kg, 120 h, tissue Blood, route oral GAVAGE, dose level High, time 5 day, vehicle .5 % CMC
READOUT_TYPE: ABSOLUTE MONOCYTE (CELLS/uL)

COMPOUND	RESULT_NUMBER
CC[C@H]1OC(=O)[C@H](C)[C@@H](O[C@H]2C[C@@](C)(OC)[C@@H](O)[C@H](C)O2)[C@H](C)[C@@H](O[C@@H]2O[C@H](C)C[C@H](N(C)C)[C@H]2O)[C@](C)(O)C[C@@H](C)C(=O)[C@H](C)[C@@H](O)[C@]1(C)O	796.67
O=C(O)CCc1nc(-c2ccccc2)c(-c2ccccc2)o1	68
Cc1ccc(S(=O)(=O)NC(=O)NN2CCCCCC2)cc1 [TOLAZAMIDE]	515.33
COc1cc(/C=C/C(=O)O)ccc1O [FERULATE]	55.33
